# TESTED_ON: human Claudin-6 (CLDN6) (human) (UniProt P56747)
# ASSAY_METHOD_TEXT: FACS, limiting dilution, UMUC4 cells
Reported FACS signal at 8 nM values for a set of binders
READOUT: FACS signal at 8 nM

{"BINDER": "AB S4 (antibody, V domains shown) VH: EVQLLESGGGLVQPGGSMRLSCAASGFTFSNYWMNWVRQAPGKGLEWIAQIRLKSDNYATHYTDSVKGRFTISRDDSKSTVYLQMNSLRAEDTGTYYCNDGPPSGSWGQGTLLTVSS VL: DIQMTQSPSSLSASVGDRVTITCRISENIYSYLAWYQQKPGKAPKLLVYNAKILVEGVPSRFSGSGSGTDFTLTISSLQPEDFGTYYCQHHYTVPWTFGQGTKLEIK", "READOUT": "FACS signal at 8 nM", "OBSERVED": 1300}
{"BINDER": "AB S8 (antibody, V domains shown) VH: QVQLVQSGAEVKKPGASVKMSCKASGYTFTTYTMHWVRQAPGQGLEWIGVINPSSGYTEYAQKFQGRVTLTADKSTSTVYMELSSLRSEDTAVYFCANGDYYVGYWGQGTLVTVSS VL: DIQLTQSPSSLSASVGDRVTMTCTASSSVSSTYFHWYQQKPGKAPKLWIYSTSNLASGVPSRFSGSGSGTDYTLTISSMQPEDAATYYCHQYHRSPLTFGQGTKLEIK", "READOUT": "FACS signal at 8 nM", "OBSERVED": 7200}
{"BINDER": "AB S3 (antibody, V domains shown) VH: EVQLLESGGGLVQPGGSMRLSCAASGFTFSNYWMNWVRQAPGKGLEWIAQIRLKSDNYVTHYTDSVKGRFTISRDDSKRTVYLQMNSLRAEDTGIYYCSDGPPSGSWGQGTLLTVSS VL: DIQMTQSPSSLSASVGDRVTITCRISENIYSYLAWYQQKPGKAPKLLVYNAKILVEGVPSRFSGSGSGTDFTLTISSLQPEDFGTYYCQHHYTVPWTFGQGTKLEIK", "READOUT": "FACS signal at 8 nM", "OBSERVED": 1980}
{"BINDER": "AB S9 (antibody, V domains shown) VH: QVQLVQSGAEVKKPGASVKMSCKASGYTFTTYTIHWVRQAPGQGLEWIGVINPSSGYTDYAQKFQGRVTLTADKSTSTVYMELSSLRSEDTAVYFCANGDYYVGYWGQGTLVTVSS VL: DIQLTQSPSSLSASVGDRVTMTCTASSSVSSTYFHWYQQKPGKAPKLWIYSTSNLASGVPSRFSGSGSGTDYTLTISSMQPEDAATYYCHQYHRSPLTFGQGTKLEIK", "READOUT": "FACS signal at 8 nM", "OBSERVED": 19200}
{"BINDER": "AB1-11 (antibody, V domains shown, humanized; also called humanized AB1-11; HU-11) VH: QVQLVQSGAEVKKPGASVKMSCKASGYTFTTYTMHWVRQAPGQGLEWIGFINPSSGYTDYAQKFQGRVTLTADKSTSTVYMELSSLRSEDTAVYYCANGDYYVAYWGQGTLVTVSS VL: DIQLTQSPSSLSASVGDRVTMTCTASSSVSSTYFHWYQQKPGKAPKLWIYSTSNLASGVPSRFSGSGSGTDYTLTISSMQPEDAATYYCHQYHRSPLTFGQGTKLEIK", "READOUT": "FACS signal at 8 nM", "OBSERVED": 1610}
